Target: NaV1.4 (Rattus norvegicus), P15390
Sequence (P15390 whole entry): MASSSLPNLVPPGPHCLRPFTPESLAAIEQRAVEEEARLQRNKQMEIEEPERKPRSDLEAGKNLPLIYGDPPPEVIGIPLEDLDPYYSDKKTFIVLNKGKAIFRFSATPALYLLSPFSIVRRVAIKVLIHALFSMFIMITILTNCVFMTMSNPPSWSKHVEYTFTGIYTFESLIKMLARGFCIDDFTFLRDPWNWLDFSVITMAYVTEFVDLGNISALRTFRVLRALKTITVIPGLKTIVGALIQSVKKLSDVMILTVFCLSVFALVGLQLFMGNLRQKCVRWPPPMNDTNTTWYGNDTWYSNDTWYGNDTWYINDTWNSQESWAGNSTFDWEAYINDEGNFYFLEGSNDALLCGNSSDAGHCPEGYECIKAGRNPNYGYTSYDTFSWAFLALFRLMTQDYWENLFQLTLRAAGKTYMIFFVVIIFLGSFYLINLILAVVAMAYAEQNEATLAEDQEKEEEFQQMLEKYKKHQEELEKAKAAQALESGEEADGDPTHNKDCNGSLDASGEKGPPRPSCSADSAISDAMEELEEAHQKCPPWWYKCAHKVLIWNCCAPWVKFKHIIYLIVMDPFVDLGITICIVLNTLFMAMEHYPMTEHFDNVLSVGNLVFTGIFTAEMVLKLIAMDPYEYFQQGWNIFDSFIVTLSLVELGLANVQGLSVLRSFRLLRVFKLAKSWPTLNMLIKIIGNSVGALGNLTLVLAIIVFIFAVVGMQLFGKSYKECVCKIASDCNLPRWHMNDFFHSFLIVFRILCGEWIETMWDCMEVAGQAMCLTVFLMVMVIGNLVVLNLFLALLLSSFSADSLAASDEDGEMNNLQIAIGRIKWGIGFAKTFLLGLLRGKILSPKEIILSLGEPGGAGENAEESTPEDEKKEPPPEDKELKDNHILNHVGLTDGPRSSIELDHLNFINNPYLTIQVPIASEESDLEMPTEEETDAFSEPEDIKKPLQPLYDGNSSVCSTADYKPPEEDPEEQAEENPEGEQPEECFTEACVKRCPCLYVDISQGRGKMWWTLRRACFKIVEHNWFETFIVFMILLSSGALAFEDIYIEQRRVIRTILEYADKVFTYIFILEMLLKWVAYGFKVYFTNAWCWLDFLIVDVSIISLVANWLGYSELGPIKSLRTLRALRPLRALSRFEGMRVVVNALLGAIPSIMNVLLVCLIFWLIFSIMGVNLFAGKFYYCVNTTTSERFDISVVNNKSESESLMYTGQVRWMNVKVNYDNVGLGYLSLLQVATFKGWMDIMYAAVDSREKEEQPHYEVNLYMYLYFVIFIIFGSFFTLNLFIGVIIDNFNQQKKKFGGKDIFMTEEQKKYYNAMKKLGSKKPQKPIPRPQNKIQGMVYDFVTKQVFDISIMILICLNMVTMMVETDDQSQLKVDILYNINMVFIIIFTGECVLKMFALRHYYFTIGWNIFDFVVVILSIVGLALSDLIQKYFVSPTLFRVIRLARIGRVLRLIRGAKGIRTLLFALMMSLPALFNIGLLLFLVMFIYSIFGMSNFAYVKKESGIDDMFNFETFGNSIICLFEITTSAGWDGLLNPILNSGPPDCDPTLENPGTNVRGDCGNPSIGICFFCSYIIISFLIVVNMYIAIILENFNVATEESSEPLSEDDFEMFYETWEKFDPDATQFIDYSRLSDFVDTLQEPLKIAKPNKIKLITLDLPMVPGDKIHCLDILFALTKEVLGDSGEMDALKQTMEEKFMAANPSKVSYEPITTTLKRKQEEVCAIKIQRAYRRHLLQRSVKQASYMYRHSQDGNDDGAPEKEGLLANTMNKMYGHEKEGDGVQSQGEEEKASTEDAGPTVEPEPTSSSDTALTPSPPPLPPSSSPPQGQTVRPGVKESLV
Conditions: modification not given
pKd: −log10 of the molar value.

{"binder": "CCNCSSKWCRDHSRCC [μ-conotoxin KIIIA-P2, P0C195]", "pKd": 6.08}
